# Procedure text: drug combination growth inhibition, ovarian cancer – cell-based, oncology-focused library, rucaparib conditional, profiling panel (AID 1508598)
# Condition label: patient-derived ovarian cancer cells, CellTiter-Glo viability, 144 h; at 0.00488 µM; OCI-P5x cells; with rucaparib 20 µM; 100% = cells with rucaparib alone
Active and inactive are the calls of the source.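 The calls were made as follows: active = normalized viability below 100% at a tested concentration; inactive = the rest.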
// classify into label 1 = active, label 0 = inactive

Worked cases, answers included:
• C=CCNC1=C2C[C@@H](C)C[C@H](OC)[C@H](O)[C@@H](C)/C=C(\C)[C@H](OC(N)=O)[C@@H](OC)/C=C\C=C(\C)C(=O)NC(=CC1=O)C2=O = label 0
• COc1cc(C(=O)NC2CCN(C)CC2)ccc1Nc1ncc2c(n1)N(C1CCCC1)CC(F)(F)C(=O)N2C = label 1
• COc1ccc(C2=N[C@@H](c3ccc(Cl)cc3)[C@H](c3ccc(Cl)cc3)N2C(=O)N2CCNC(=O)C2)c(OC(C)C)c1 = label 1

As a next step, examine the compound that follows.
## Input For this compound, state the assay outcome: `C[C@@]1(c2nc3c(C(N)=O)cccc3[nH]2)CCCN1`
## Output label 0

====

# Procedure text: drug combination growth inhibition, ovarian cancer – cell-based, oncology-focused library, rucaparib conditional, profiling panel (AID 1508598)
# Condition label: patient-derived ovarian cancer cells, CellTiter-Glo viability, 144 h; at 0.000305 µM; OCI-P5x cells; without rucaparib; hits give low values
Below is a list of entries, each paired with its recorded viability value.
# output: bare number, implied unit %

## Input # input molecule: `Cc1[nH]c(C=C2C(=O)Nc3ccc(S(=O)(=O)Cc4c(Cl)cccc4Cl)cc32)c(C)c1C(=O)N1CCC[C@@H]1CN1CCCC1` ; wanted: its viability
## Output 47.4

## Input Which viability is reported for this molecule? `COc1cccc2c1C(=O)c1c(O)c3c(c(O)c1C2=O)C[C@@](O)(C(=O)CO)C[C@H]3O[C@H]1C[C@H](N)[C@@H](O)[C@H](C)O1`
## Output 105

## Input Look at this molecule and give its reported viability. `CC(=O)O[C@@]1(C(C)=O)CC[C@H]2[C@@H]3C=C(C)C4=CC(=O)CC[C@]4(C)[C@@H]3CC[C@@]21C`
## Output 104

## Input Could you share which viability value was measured for `CN(C)CCSSCCNC(=O)C1CCN(C(=O)CSc2ccc(Cl)cc2)CC1` ?
## Output 95.4

====

# Procedure text: viability loss with induced miR-34 in A549 – imaging, A549 dox-inducible miR-34, nuclei and caspase counts, primary screen (AID 1347080)
# Condition label: A549 miR-34 inducible, Hoechst nuclei count, 48 h; hits give low values; cell number ratio, induced over uninduced
Classes based on fold change: I: < 0.9; II: ≥ 0.9 and < 1; III: ≥ 1

• O=C(OC1C[N+]2(CCCOc3ccccc3)CCC1CC2)C(O)(c1cccs1)c1cccs1 (stereo not given) = II
• O=C(NCC1(c2nc(-c3ccccc3)cs2)CCOCC1)c1cccc(-c2noc(C(F)(F)F)n2)c1 = I
• C[C@]12CC[C@H]3c4ccc(O)cc4CC[C@H]3[C@@H]1CCC2O (stereo not given in full) = I

Kindly review the next compound as well.
## Input Categorize the following entry: `CCn1c2ccccc2c2cc(CNC)ccc21`
## Output I

====

# Procedure text: galactose survival enhancers in mitochondrial complex I cybrids – cell-based, galactose medium, ATP luminescence, primary screen (AID 1645843);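 also: positive z means more ATP and so rescue of galactose-driven cybrid death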
# Condition label: complex I mutant cybrid cells, 72 h
The source made the active and inactive calls.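 The calls were made as follows: active = z-score of at least 1.8 in each of two replicates, scored against plate mean and spread of sample wells; inactive = the rest.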
Response enum: class 1 = active, class 0 = inactive

Illustrative cases are given below, each with its answer.
* Oc1ccc(Cn2cc[nH]c2=S)cc1 | class 0
* CCN(C(=O)c1cc(-c2cnc(C3CC3)nc2)nc2cc(C)ccc12)C(C)C | class 0
* O=c1[nH]c(=S)[nH]c(-c2ccccc2)c1Cc1c(O)ccc2ccccc12 | class 0

## Input Short answer needed: outcome of this test for `CC[C@@H]1NC(=O)[C@H]2CN(C(=O)Oc3cccc4ccccc34)CCN2C1=O` ?
## Output class 0

## Input Could you kindly confirm the outcome this assay logged for CCOC(=O)c1ccc(N2CCC(c3ccc(F)cc3)C2)nc1 (stereo unspecified) ?
## Output class 0
